# applied.conditions: mouse, in vivo, sc, 40 mg/kg
Residues, ends and D or L forms follow the SMILES beside them.

molecule	half-life (h)
CC[C@@H]1NC(=O)[C@@H](CC(C)C)NC(=O)[C@H](CCN)NC(=O)[C@@H](NC(=O)[C@H](CN)NC(=O)[C@@H](NC(=O)[C@H](CCN)NC(=O)c2ccc(Cl)cc2Cl)[C@@H](C)O)CCNC(=O)[C@H]([C@@H](C)O)NC(=O)[C@H](CCN)NC(=O)[C@H](CCN)NC1=O [Lipopeptide F365] (HELM PEPTIDE1{[O=C(c1ccc(Cl)cc1Cl)[*:2]].[Dab].T.[NC[C@H](N[*:1])C(=O)[*:2]].[Dab].[Dab].[dL].[Abu].[Dab].[Dab].T}$PEPTIDE1,PEPTIDE1,5:R3-11:R2$$$V2.0)	3.39

====

# System: P. aeruginosa ATCC 27853
# protocol.summary: Neutropenic mouse bloodstream infection model
# Type: in vivo
# applied.conditions: single IV dose 4 mg/kg, 4 h
Residues, ends and D or L forms follow the SMILES beside them.
reported.property: Log10 CFU/mL blood at 4 h, Mean (Log10 CFU/mL blood)

compound	reported.property	recorded.result
CC[C@@H]1NC(=O)[C@@H](CC(C)C)NC(=O)[C@H](CCN)NC(=O)[C@@H](NC(=O)[C@H](CN)NC(=O)[C@@H](NC(=O)[C@H](CCN)NC(=O)c2ccc(Cl)cc2)[C@@H](C)O)CCNC(=O)[C@H]([C@@H](C)O)NC(=O)[C@H](CCN)NC(=O)[C@H](CCN)NC1=O [Lipopeptide F378] (HELM PEPTIDE1{[O=C(c1ccc(Cl)cc1)[*:2]].[Dab].T.[NC[C@H](N[*:1])C(=O)[*:2]].[Dab].[Dab].[dL].[Abu].[Dab].[Dab].T}$PEPTIDE1,PEPTIDE1,5:R3-11:R2$$$V2.0)	Log10 CFU/mL blood at 4 h, Mean	4.71
CCCCCCCC(=O)N[C@@H](CCN)C(=O)N[C@H](C(=O)N[C@H](CN)C(=O)N[C@H]1CCNC(=O)[C@H]([C@@H](C)O)NC(=O)[C@H](CCN)NC(=O)[C@H](CCN)NC(=O)[C@H]([C@@H](C)O)NC(=O)[C@@H](CC(C)C)NC(=O)[C@H](CCN)NC1=O)[C@@H](C)O [Lipopeptide F300] (HELM PEPTIDE1{[CCCCCCCC(=O)[*:2]].[Dab].T.[NC[C@@H](N[*:1])C(=O)[*:2]].[Dab].[Dab].[dL].T.[Dab].[Dab].T}$PEPTIDE1,PEPTIDE1,5:R3-11:R2$$$V2.0)	Log10 CFU/mL blood at 4 h, Mean	5.31

====

# protocol.summary: in vitro
# Format: cell-based, human
# applied.conditions: human, wild-type HK-2 cells (kidney proximal tubular), Cell viability, WT, Rep3
Residues, ends and D or L forms follow the SMILES beside them.
reported.property: viability at 24 h (%)

molecule	recorded.result
CCCCCCCC(=O)N[C@@H](CCN)C(=O)N[C@H](C(=O)N[C@@H](CCN)C(=O)N[C@H]1CCNC(=O)[C@H]([C@@H](C)O)NC(=O)[C@H](CCN)NC(=O)[C@H](CCN)NC(=O)[C@H](CC)NC(=O)[C@@H](CC(C)C)NC(=O)[C@H](CCN)NC1=O)[C@@H](C)O [Lipopeptide F319] (HELM PEPTIDE1{[CCCCCCCC(=O)[*:2]].[Dab].T.[Dab].[Dab].[Dab].[dL].[Abu].[Dab].[Dab].T}$PEPTIDE1,PEPTIDE1,5:R3-11:R2$$$V2.0)	78.8

====

Reported MIC K. pneumoniae FADDI-KP032 values for the following compounds.
# Tested on: K. pneumoniae FADDI-KP032
# Type: cell-based, Klebsiella pneumoniae
# applied.conditions: FADDI-KP032
Residues, ends and D or L forms follow the SMILES beside them.

compound	unit	censoring.qualifier	MIC K. pneumoniae FADDI-KP032
CCCCCC(=O)N[C@@H](CCN)C(=O)N[C@H](C(=O)N[C@@H](CN)C(=O)N[C@H]1CCNC(=O)[C@H]([C@@H](C)O)NC(=O)[C@H](CCN)NC(=O)[C@H](CCN)NC(=O)[C@H](CC)NC(=O)[C@@H](CC(C)C)NC(=O)[C@H](CCN)NC1=O)[C@@H](C)O [Lipopeptide F342] (HELM PEPTIDE1{[CCCCCC(=O)[*:2]].[Dab].T.[NC[C@H](N[*:1])C(=O)[*:2]].[Dab].[Dab].[dL].[Abu].[Dab].[Dab].T}$PEPTIDE1,PEPTIDE1,5:R3-11:R2$$$V2.0)	µg/mL	=	0.25
CC[C@@H]1NC(=O)[C@@H](CC(C)C)NC(=O)[C@H](CCN)NC(=O)[C@@H](NC(=O)[C@H](CN)NC(=O)[C@@H](NC(=O)[C@H](CCN)NC(=O)c2ccc(Cl)cc2F)[C@@H](C)O)CCNC(=O)[C@H]([C@@H](C)O)NC(=O)[C@H](CCN)NC(=O)[C@H](CCN)NC1=O [Lipopeptide F448] (HELM PEPTIDE1{[O=C(c1ccc(Cl)cc1F)[*:2]].[Dab].T.[NC[C@H](N[*:1])C(=O)[*:2]].[Dab].[Dab].[dL].[Abu].[Dab].[Dab].T}$PEPTIDE1,PEPTIDE1,5:R3-11:R2$$$V2.0)	µg/mL	<	0.125

====

# Tested on: P. aeruginosa ATCC 27853
# Format: cell-based, Pseudomonas aeruginosa
# applied.conditions: ATCC 27853
Residues, ends and D or L forms follow the SMILES beside them.

molecule	unit	MIC P. aeruginosa ATCC 27853
CC[C@@H]1NC(=O)[C@@H](CC(C)C)NC(=O)[C@H](CCN)NC(=O)[C@@H](NC(=O)[C@H](CN)NC(=O)[C@@H](NC(=O)[C@H](CCN)NC(=O)c2ccc(F)cc2Cl)[C@@H](C)O)CCNC(=O)[C@H]([C@@H](C)O)NC(=O)[C@H](CCN)NC(=O)[C@H](CCN)NC1=O [Lipopeptide F449] (HELM PEPTIDE1{[O=C(c1ccc(F)cc1Cl)[*:2]].[Dab].T.[NC[C@H](N[*:1])C(=O)[*:2]].[Dab].[Dab].[dL].[Abu].[Dab].[Dab].T}$PEPTIDE1,PEPTIDE1,5:R3-11:R2$$$V2.0)	µg/mL	0.5

====

# protocol.summary: Plasma pharmacokinetics in mice
# Format: in vivo, mouse
# applied.conditions: mouse, in vivo, ip, 5 mg/kg
Residues, ends and D or L forms follow the SMILES beside them.
reported.property: AUC(0-inf) (ng·h/mL)

molecule	unit	recorded.result
CC[C@@H]1NC(=O)[C@@H](CC(C)C)NC(=O)[C@H](CCN)NC(=O)[C@@H](NC(=O)[C@H](CN)NC(=O)[C@@H](NC(=O)[C@H](CCN)NC(=O)c2ccc(Cl)cc2Cl)[C@@H](C)O)CCNC(=O)[C@H]([C@@H](C)O)NC(=O)[C@H](CCN)NC(=O)[C@H](CCN)NC1=O [Lipopeptide F365] (HELM PEPTIDE1{[O=C(c1ccc(Cl)cc1Cl)[*:2]].[Dab].T.[NC[C@H](N[*:1])C(=O)[*:2]].[Dab].[Dab].[dL].[Abu].[Dab].[Dab].T}$PEPTIDE1,PEPTIDE1,5:R3-11:R2$$$V2.0)	ng·h/mL	7920

====

# Assay type: in vitro ADME
# applied.conditions: human, plasma
Residues, ends and D or L forms follow the SMILES beside them.

compound	fraction unbound
CC[C@@H]1NC(=O)[C@@H](CC(C)C)NC(=O)[C@H](CCN)NC(=O)[C@@H](NC(=O)[C@H](CN)NC(=O)[C@@H](NC(=O)[C@H](CCN)NC(=O)c2ccc(Cl)cc2Cl)[C@@H](C)O)CCNC(=O)[C@H]([C@@H](C)O)NC(=O)[C@H](CCN)NC(=O)[C@H](CCN)NC1=O [Lipopeptide F365] (HELM PEPTIDE1{[O=C(c1ccc(Cl)cc1Cl)[*:2]].[Dab].T.[NC[C@H](N[*:1])C(=O)[*:2]].[Dab].[Dab].[dL].[Abu].[Dab].[Dab].T}$PEPTIDE1,PEPTIDE1,5:R3-11:R2$$$V2.0)	0.55

====

# Tested on: P. aeruginosa ATCC 27853
# protocol.summary: Neutropenic mouse bloodstream infection model
# Assay type: in vivo
# applied.conditions: single IV dose 4 mg/kg, 4 h, treated minus control, mean of replicates; 4 mg/kg
Residues, ends and D or L forms follow the SMILES beside them.
Reported Δlog10 CFU/mL blood (mean) values for the following compounds.
reported.property: Δlog10 CFU/mL blood (mean) (log10 CFU/mL blood)

compound	assayed.system	reported.property	recorded.result
CCCCCCCC(=O)N[C@@H](CCN)C(=O)N[C@H](C(=O)N[C@@H](CCCN)C(=O)N[C@H]1CCNC(=O)[C@H]([C@@H](C)O)NC(=O)[C@H](CCN)NC(=O)[C@H](CCN)NC(=O)[C@H]([C@@H](C)O)NC(=O)[C@@H](CC(C)C)NC(=O)[C@H](CCN)NC1=O)[C@@H](C)O [Lipopeptide F252] (HELM PEPTIDE1{[CCCCCCCC(=O)[*:2]].[Dab].T.[Orn].[Dab].[Dab].[dL].T.[Dab].[Dab].T}$PEPTIDE1,PEPTIDE1,5:R3-11:R2$$$V2.0)	P. aeruginosa ATCC 27853	Δlog10 CFU/mL blood (mean)	−1.98
CC[C@@H]1NC(=O)[C@@H](CC(C)C)NC(=O)[C@H](CCN)NC(=O)[C@@H](NC(=O)[C@H](CN)NC(=O)[C@@H](NC(=O)[C@H](CCN)NC(=O)c2ccc(Cl)cc2Cl)[C@@H](C)O)CCNC(=O)[C@H]([C@@H](C)O)NC(=O)[C@H](CCN)NC(=O)[C@H](CCN)NC1=O [Lipopeptide F365] (HELM PEPTIDE1{[O=C(c1ccc(Cl)cc1Cl)[*:2]].[Dab].T.[NC[C@H](N[*:1])C(=O)[*:2]].[Dab].[Dab].[dL].[Abu].[Dab].[Dab].T}$PEPTIDE1,PEPTIDE1,5:R3-11:R2$$$V2.0)	P. aeruginosa ATCC 27853	Δlog10 CFU/mL blood (mean)	−3.44
CCCCCCCC(=O)N[C@@H](CCN)C(=O)N[C@H](C(=O)N[C@@H](CCN)C(=O)N[C@H]1CCNC(=O)[C@H]([C@@H](C)O)NC(=O)[C@H](CCN)NC(=O)[C@H](CCN)NC(=O)[C@H]([C@@H](C)O)NC(=O)[C@@H](CC(C)C)NC(=O)[C@H](CCN)NC1=O)[C@@H](C)O [Lipopeptide F100] (HELM PEPTIDE1{[CCCCCCCC(=O)[*:2]].[Dab].T.[Dab].[Dab].[Dab].[dL].T.[Dab].[Dab].T}$PEPTIDE1,PEPTIDE1,5:R3-11:R2$$$V2.0)	P. aeruginosa ATCC 27853	Δlog10 CFU/mL blood (mean)	−3.01
CCCCCCCC(=O)N[C@@H](CCN)C(=O)N[C@H](C(=O)N[C@H](CN)C(=O)N[C@H]1CCNC(=O)[C@H]([C@@H](C)O)NC(=O)[C@H](CCN)NC(=O)[C@H](CCN)NC(=O)[C@H]([C@@H](C)O)NC(=O)[C@@H](CC(C)C)NC(=O)[C@H](CCN)NC1=O)[C@@H](C)O [Lipopeptide F300] (HELM PEPTIDE1{[CCCCCCCC(=O)[*:2]].[Dab].T.[NC[C@@H](N[*:1])C(=O)[*:2]].[Dab].[Dab].[dL].T.[Dab].[Dab].T}$PEPTIDE1,PEPTIDE1,5:R3-11:R2$$$V2.0)	P. aeruginosa ATCC 27853	Δlog10 CFU/mL blood (mean)	−1.53
CCCCCCCC(=O)N[C@@H](CCN)C(=O)N[C@H](C(=O)N[C@H](CCN)C(=O)N[C@H]1CCNC(=O)[C@H]([C@@H](C)O)NC(=O)[C@H](CCN)NC(=O)[C@H](CCN)NC(=O)[C@H]([C@@H](C)O)NC(=O)[C@@H](CC(C)C)NC(=O)[C@H](CCN)NC1=O)[C@@H](C)O [Lipopeptide F085] (HELM PEPTIDE1{[CCCCCCCC(=O)[*:2]].[Dab].T.[NCC[C@@H](N[*:1])C(=O)[*:2]].[Dab].[Dab].[dL].T.[Dab].[Dab].T}$PEPTIDE1,PEPTIDE1,5:R3-11:R2$$$V2.0)	P. aeruginosa ATCC 27853	Δlog10 CFU/mL blood (mean)	−2.16

Data origin, for the record: paper PMC8956739
